PARAMETER_MEASURED: logP

molecule="CC(C)NCC(O)COc1cccc2[nH]ccc12 (stereo not drawn)" parameter_measured=logP result=1.76
molecule=c1ccc(N=Nc2ccccc2)cc1 parameter_measured=logP result=3.92
molecule=CC1=CC(=O)c2cc(C)ccc2C1=O parameter_measured=logP result=1.77

====

- EXPERIMENT_NOTES: from Dutta, H.; Mehta, N.; SenGupta, M.; Pal, D.; Sengupta, C.; De, A. (1988). Dioxanide furoate: studies on its interaction with blood phospholipid in relation to partition coefficients of related drugs. …
PARAMETER_MEASURED: logP

molecule_smiles=O=C(Nc1ccc(O)cc1)C(Cl)Cl result=1.6
molecule_smiles=CN(C(=O)C(Cl)Cl)c1ccc(OC(=O)c2ccccc2)cc1 result=2.56
molecule_smiles=CN(C(=O)C(Cl)Cl)c1ccc(OC(=O)c2ccco2)cc1 result=2.24

====

- EXPERIMENT_NOTES: method code SF-HPLC, from DOI: 10.1002/jps.2600830510, PMID: 8071813
PARAMETER_MEASURED: logP

molecule_smiles=O=C(OCCCN1CCOCC1)c1ccccc1Nc1c(Cl)cccc1Cl parameter_measured=logP result=2.81

====

PARAMETER_MEASURED: logP

molecule="CCC(N)C(=O)Nc1c(C)cccc1C (stereo unspecified)" result=0.84

====

- EXPERIMENT_NOTES: method code SF-GLC, from DOI: 10.1080/03086648508073361
# key: entry, value: logP
PARAMETER_MEASURED: logP

molecule_smiles=CN(C)P(=O)(N(C)C)N(C)C result=0.09
molecule_smiles=CCN(CC)P(=O)(N(C)C)N(C)C result=0.66
molecule_smiles=CCN(CC)P(=O)(N(CC)CC)N1CCCC1 result=2.39

====

# logP per record follows
PARAMETER_MEASURED: logP

molecule_smiles=CCOC(=O)OC[C@@H]1O[C@H](n2ccc(N)nc2=O)CS1 result=-0.25
molecule_smiles=CCCCCOC(=O)OC[C@@H]1O[C@H](n2ccc(N)nc2=O)CS1 result=1.2
molecule_smiles=CCCOC(=O)OC[C@@H]1O[C@H](n2ccc(N)nc2=O)CS1 result=0.22
molecule_smiles=CC(C)OC(=O)OC[C@@H]1O[C@H](n2ccc(N)nc2=O)CS1 result=0.1

====

- EXPERIMENT_NOTES: method code SF-AS, from DOI: 10.1016/s0021-9673(00)91570-x
- MEASUREMENT_CONDITIONS: pH 3.4
PARAMETER_MEASURED: logD

molecule_smiles=COc1cc(CC(=O)O)ccc1OCCCC(C)C result=3.3
molecule_smiles=O=C(O)Cc1ccc(OCc2ccccc2)cc1 result=2.85

====

- EXPERIMENT_NOTES: method code SF, from DOI: 10.1016/j.tca.2016.07.020
- MEASUREMENT_CONDITIONS: pH 7.4
PARAMETER_MEASURED: logD

molecule_smiles=NC(=S)c1ccncc1 parameter_measured=logD result=0.61

====

Collected logD values appear next to each entry.
- EXPERIMENT_NOTES: method code SF, from DOI: 10.1016/0168-3659(92)90078-6
- MEASUREMENT_CONDITIONS: pH 7.0
PARAMETER_MEASURED: logD

molecule=CCCCC(=O)OC[C@@H]1CC[C@H](n2cnc3c(=O)[nH]cnc32)O1 parameter_measured=logD result=0.65
molecule="Cc1ccccc1C(=O)OCC1CCC(n2cnc3c(O)ncnc32)O1 (stereo not drawn)" parameter_measured=logD result=1.02
molecule=CCCC(=O)OC[C@@H]1CC[C@H](n2cnc3c(=O)[nH]cnc32)O1 parameter_measured=logD result=0.11
